- Tested on: Haemophilus influenzae (H. influenzae) 49247
- EXPERIMENT_NOTES: Antibacterial activity, MIC, H. influenzae 49247
- Assay type: cell-based
- CONDITION_SET: Haemophilus influenzae; H. influenzae 49247; read-out: MIC 49247
Where a name gives a salt, the structure may show the parent alone.
ASSAY_READOUT: MIC

input: Entry CCc1cc(C(=O)O)c(=O)[nH]c1-c1ccc(N2CCN(C(=O)OC(C)(C)C)CC2)cc1 has what MIC?
output: 1 to 3.5 µg/mL

input: // next record CCc1c(-c2ccc(N3C[C@@H]4[C@H](C3)[C@H]4NC)cc2)[nH]c(=O)c(C(=O)O)c1O [Cpd 270, hydrochloride]
output: < 1 µg/mL

input: // next record CCc1c(-c2ccc(N3CCCC3)cc2)[nH]c(=O)c(C(=O)O)c1O
output: < 1 µg/mL

input: // next record CCc1cc(C(=O)O)c(=O)[nH]c1-c1ccc(N2CCCC2)cc1
output: < 1 µg/mL

input: // next record CCc1cc(C(=O)O)c(=O)[nH]c1-c1ccc(N2CCC[C@H]2C(=O)O)cc1
output: < 1 µg/mL

input: // next record CCc1cc(C(=O)O)c(=O)[nH]c1-c1ccc(N2CC[C@@H](N(C)C)C2)cc1.O=C(O)C(F)(F)F
output: < 1 µg/mL

input: // next record CCc1c(-c2ccc(-n3ccnc3)cc2)[nH]c(=O)c(C(=O)O)c1O
output: < 1 µg/mL

input: // next record CCc1cc(C(=O)O)c(=O)[nH]c1-c1ccc(N2CCCC2c2nccs2)cc1 (stereo not drawn)
output: < 1 µg/mL

input: // next record CCc1c(-c2ccc(N(CC)CC)cc2)[nH]c(=O)c(C(=O)O)c1O
output: 1 to 3.5 µg/mL

input: // next record CCc1cc(C(=O)O)c(=O)[nH]c1-c1ccc(-n2ccnc2)cc1
output: < 1 µg/mL

input: // next record CC(C)c1c(-c2ccc(N(C)C)cc2)[nH]c(=O)c(C(=O)O)c1O
output: < 1 µg/mL

input: // next record CCc1cc(C(=O)O)c(=O)[nH]c1-c1ccc(N2CCC[C@H]2COC)cc1
output: 1 to 3.5 µg/mL

input: // next record CN(C)c1ccc(-c2[nH]c(=O)c(C(=O)O)cc2C(=O)O)cc1
output: < 1 µg/mL

input: // next record CCc1c(-c2ccc(N(C)C)nc2)[nH]c(=O)c(C(=O)O)c1O
output: 1 to 3.5 µg/mL

input: // next record CCc1c(-c2ccc(N3CCC(N4CCCC4)C3)cc2)[nH]c(=O)c(C(=O)O)c1O.Cl (stereo not drawn)
output: 1 to 3.5 µg/mL

input: // next record CCc1c(-c2ccc(N3CCC3)cc2)[nH]c(=O)c(C(=O)O)c1O
output: < 1 µg/mL

input: // next record CCc1c(-c2ccc(N3C[C@H]4CCC[C@H](N)[C@H]4C3)cc2)[nH]c(=O)c(C(=O)O)c1O.Cl
output: 3.5 to 12.5 µg/mL

input: // next record CCc1cc(C(=O)O)c(=O)[nH]c1-c1ccc(N2C[C@@H](N)[C@H](OC)C2)cc1.Cl
output: < 1 µg/mL

====

Would you kindly list MIC for each of these molecules?
- System: super sensitive Gram-negative Escherichia coli (E. coli) BAS849
- EXPERIMENT_NOTES: Antibacterial activity, microbroth dilution MIC, E. coli BAS849
- Assay type: cell-based
- CONDITION_SET: Escherichia coli; E. coli BAS849, microbroth dilution; read-out: MIC, BAS849

input: Entry CCc1cc(C(=O)O)c(=O)[nH]c1-c1ccc(OC(C)(C)C)cc1 [Cpd 311] has what MIC?
output: 3.5 to 12.5 µg/mL

input: // next record CCc1c(-c2ccc(N(CC)CC)cc2)[nH]c(=O)c(C(=O)O)c1O [Cpd 98]
output: < 1 µg/mL

input: // next record CCc1cc(C(=O)O)c(=O)[nH]c1-c1ccc(Nc2ccccc2)cc1 [Cpd 155]
output: < 1 µg/mL

input: // next record CN(C)c1ccc(-c2[nH]c(=O)c(C(=O)O)c(O)c2Cc2ccccc2)cc1 [Cpd 2]
output: 12.5 to 150 µg/mL

input: // next record CCc1cc(C(=O)O)c(=O)[nH]c1-c1ccc(N(CC)CC)cc1 [Cpd 97]
output: < 1 µg/mL

====

Would you kindly list MIC for each of these molecules?
- Test system: Neisseria meningitidis (N. meningitidis) 13090
- EXPERIMENT_NOTES: Antibacterial activity, MIC, N. meningitidis 13090
- Type: cell-based
- CONDITION_SET: Neisseria meningitidis; N. meningitidis 13090; read-out: MIC 13090

input: Entry CCc1c(-c2ccc(N3C[C@H]4CC[C@@H](N(C)C)[C@H]4C3)cc2)[nH]c(=O)c(C(=O)O)c1O.Cl has what MIC?
output: 1 to 3.5 µg/mL

input: // next record CCc1cc(C(=O)O)c(=O)[nH]c1-c1ccc(N2CCC(O)C2)cc1 (centres unmarked)
output: < 1 µg/mL

input: // next record CCc1cc(C(=O)O)c(=O)[nH]c1-c1ccc(N(CC)CC)cc1
output: < 1 µg/mL

input: // next record CCc1cc(C(=O)O)c(=O)[nH]c1-c1ccc(N2CCCC2)cc1
output: < 1 µg/mL

input: // next record CCc1cc(C(=O)O)c(=O)[nH]c1-c1ccc(-n2ccnc2)cc1
output: 3.5 to 12.5 µg/mL

====

- Test system: quinolone resistant E. coli LZ3111
- EXPERIMENT_NOTES: Antibacterial activity, MIC, quinolone resistant E. coli LZ3111
- Type: cell-based, Escherichia coli
- CONDITION_SET: Escherichia coli, read-out: MIC, LZ3111
Would you kindly list MIC for each of these compounds?

input: Entry CCc1c(-c2ccc(N3C[C@H]4C[C@@H](N)C[C@H]4C3)cc2)[nH]c(=O)c(C(=O)O)c1O has what MIC?
output: 12.5 to 150 µg/mL

input: // next record CCc1cc(C(=O)O)c(=O)[nH]c1-c1ccc(N2CCC(CN(C)Cc3ccccc3)C2)cc1.O=C(O)C(F)(F)F (stereo not shown)
output: 12.5 to 150 µg/mL

input: // next record CN(C)c1ccc(-c2[nH]c(=O)c(C(=O)O)c(O)c2CCO)cc1
output: 3.5 to 12.5 µg/mL

input: // next record CCc1cc(C(=O)O)c(=O)[nH]c1-c1ccc(N2C[C@H]3CCC[C@@H](N(Cc4ccccc4)Cc4ccccc4)[C@H]3C2)cc1.O=C(O)C(F)(F)F
output: 12.5 to 150 µg/mL

====

Would you kindly list MIC for each of these compounds?
- Test system: quinolone resistant E. coli LZ3111
- EXPERIMENT_NOTES: Antibacterial activity, MIC, quinolone resistant E. coli LZ3111
- Format: cell-based, Escherichia coli
- CONDITION_SET: Escherichia coli, read-out: MIC, LZ3111

input: Entry CCc1c(-c2ccc(N(C)C)cc2)[nH]c(=O)c(C(=O)O)c1O has what MIC?
output: 12.5 to 150 µg/mL

input: // next record CCc1cc(C(=O)O)c(=O)[nH]c1-c1ccc(CN2CCCC2)n1C
output: 12.5 to 150 µg/mL

input: // next record CCc1cc(C(=O)O)c(=O)[nH]c1-c1ccc(N2CCC(CNCc3ccccc3Cl)C2)cc1 (stereo not drawn)
output: 12.5 to 150 µg/mL

input: // next record CCc1c(-c2cnc(N3CCCC3)cn2)[nH]c(=O)c(C(=O)O)c1O
output: 12.5 to 150 µg/mL

input: // next record CCc1c(-c2cnc(N(C)C)nc2)[nH]c(=O)c(C(=O)O)c1O
output: 3.5 to 12.5 µg/mL

input: // next record CCc1c(-c2ccc(N3CCC(n4ccnn4)C3)cc2)[nH]c(=O)c(C(=O)O)c1O (stereo not drawn)
output: 12.5 to 150 µg/mL

input: // next record CCc1c(-c2ccc(N3CCC3)cc2)[nH]c(=O)c(C(=O)O)c1O
output: 12.5 to 150 µg/mL

input: // next record CCc1cc(C(=O)O)c(=O)[nH]c1-c1ccc(N2CCC(CNCc3cccnc3)C2)cc1 (stereo not drawn)
output: 12.5 to 150 µg/mL

input: // next record COCc1c(-c2ccc(N(C)C)cc2)[nH]c(=O)c(C(=O)O)c1O
output: 12.5 to 150 µg/mL

input: // next record CCc1c(-c2ccc(N3C[C@H]4CCC[C@H](N)[C@H]4C3)cc2)[nH]c(=O)c(C(=O)O)c1O.Cl
output: < 1 µg/mL

input: // next record CCc1cc(C(=O)O)c(=O)[nH]c1-c1ccc(N2CC3CCCCC3(C#N)C2)cc1 (stereo not drawn)
output: 12.5 to 150 µg/mL

input: // next record CCc1c(-c2ccc(N3CCOCC3)cn2)[nH]c(=O)c(C(=O)O)c1O
output: 12.5 to 150 µg/mL

input: // next record CCc1cc(C(=O)O)c(=O)[nH]c1-c1ccc(N2C[C@H]3CCC[C@@H](N(C)Cc4ccccc4)[C@H]3C2)cc1.O=C(O)C(F)(F)F
output: 12.5 to 150 µg/mL

input: // next record CCc1c(-c2ccc(N3C[C@@H](O)[C@@H](O)C3)cc2)[nH]c(=O)c(C(=O)O)c1O
output: 12.5 to 150 µg/mL

input: // next record CCc1cc(C(=O)O)c(=O)[nH]c1-c1ccc(N2CCC(NC3CC3)C2)cc1 (stereo not drawn)
output: 12.5 to 150 µg/mL

input: // next record Cc1c(-c2ccc(N(C)C)cc2)[nH]c(=O)c(C(=O)O)c1O
output: 1 to 3.5 µg/mL

input: // next record CCc1c(-c2ccc(N3C[C@H]4CCC[C@@H](NC)[C@H]4C3)cc2)[nH]c(=O)c(C(=O)O)c1O.Cl
output: < 1 µg/mL

input: // next record CCc1cc(C(=O)O)c(=O)[nH]c1-c1ccc(N2CCC[C@@H]2COC)cc1
output: 12.5 to 150 µg/mL
